# Test system: Actinobacillus pleuropneumoniae CVCC262
# methodDescription: in vitro susceptibility, MIC by mini broth dilution
# Format: cell-based
# cond: strain CVCC262
metric: MIC values, Actinobacillus pleuropneumoniae CVCC262
Note: a bare number is incomplete; add the unit.

stdin: Answer with the recorded MIC values, Actinobacillus pleuropneumoniae CVCC262 of CCCN1C[C@H](C)[C@@H](O)[C@](C)(O)[C@@H](CC)OC(=O)[C@H](C)[C@@H](O[C@H]2C[C@@](C)(OC)[C@](O)(CNc3ccc(OC)cc3)[C@H](C)O2)[C@H](C)[C@@H](O[C@@H]2O[C@H](C)C[C@H](N(C)C)[C@H]2O)[C@](C)(O)C[C@H]1C only.
stdout: 0.5 ug/mi

====

Field: MIC values, Pasteurella multocida CVCC399. Provide a value for each of the compounds that follow.
# Tested on: Pasteurella multocida CVCC399
# methodDescription: in vitro susceptibility, MIC by mini broth dilution
# Type: cell-based
# cond: strain CVCC399

Some compounds with recorded MIC values, Pasteurella multocida CVCC399:
CCCN1C[C@H](C)[C@@H](O)[C@](C)(O)[C@@H](CC)OC(=O)[C@H](C)[C@@H](O[C@H]2C[C@@](C)(OC)[C@](O)(CNCCCC(=O)O)[C@H](C)O2)[C@H](C)[C@@H](O[C@@H]2O[C@H](C)C[C@H](N(C)C)[C@H]2O)[C@](C)(O)C[C@H]1C [syzx-142]; 0.5 ug/mi
CCCN1C[C@H](C)[C@@H](O)[C@](C)(O)[C@@H](CC)OC(=O)[C@H](C)[C@@H](O[C@H]2C[C@@](C)(OC)[C@](O)(CN3CCCC3)[C@H](C)O2)[C@H](C)[C@@H](O[C@@H]2O[C@H](C)C[C@H](N(C)C)[C@H]2O)[C@](C)(O)C[C@H]1C [syzx-209]; 0.25 ug/mi
CCCN1C[C@H](C)[C@@H](O)[C@](C)(O)[C@@H](CC)OC(=O)[C@H](C)[C@@H](O[C@H]2C[C@@](C)(OC)[C@](O)(CNC(C)CCCN(CC)CC)[C@H](C)O2)[C@H](C)[C@@H](O[C@@H]2O[C@H](C)C[C@H](N(C)C)[C@H]2O)[C@](C)(O)C[C@H]1C (stereo partly shown) [syzx-159]; 0.5 ug/mi

Now for a further compound.
stdin: Answer with the recorded MIC values, Pasteurella multocida CVCC399 of CCCN1CC(C)C(O)C(C)(O)C(CC)OC(=O)C(C)C(OC2CC(C)(OC)C(O)(CNNc3ccccc3)C(C)O2)C(C)C(OC2OC(C)CC(N(C)C)C2O)C(C)(O)CC1C (stereo not shown) [syzx-173] only.
stdout: 4 ug/mi

====

# Tested on: Actinobacillus pleuropneumoniae CVCC262
# methodDescription: in vitro susceptibility, MIC by mini broth dilution
# Assay type: cell-based
# cond: strain CVCC262
Classify: true when MIC values, Actinobacillus pleuropneumoniae CVCC262 is strictly less than 0.5 ug/mi; false when MIC values, Actinobacillus pleuropneumoniae CVCC262 is not.

Solved cases (5 shown):
CCCN1C[C@H](C)[C@@H](O)[C@](C)(O)[C@@H](CC)OC(=O)[C@H](C)[C@@H](O[C@H]2C[C@@](C)(OC)[C@](O)(CNC(C)C)[C@H](C)O2)[C@H](C)[C@@H](O[C@@H]2O[C@H](C)C[C@H](N(C)C)[C@H]2O)[C@](C)(O)C[C@H]1C; true
CCCN1C[C@H](C)[C@@H](O)[C@](C)(O)[C@@H](CC)OC(=O)[C@H](C)[C@@H](O[C@H]2C[C@@](C)(OC)[C@](O)(CNc3cc(C(F)(F)F)cc(C(F)(F)F)c3)[C@H](C)O2)[C@H](C)[C@@H](O[C@@H]2O[C@H](C)C[C@H](N(C)C)[C@H]2O)[C@](C)(O)C[C@H]1C; false
CCCN1C[C@H](C)[C@@H](O)[C@](C)(O)[C@@H](CC)OC(=O)[C@H](C)[C@@H](O[C@H]2C[C@@](C)(OC)[C@](O)(CNC(C)CCCN(CC)CC)[C@H](C)O2)[C@H](C)[C@@H](O[C@@H]2O[C@H](C)C[C@H](N(C)C)[C@H]2O)[C@](C)(O)C[C@H]1C (some centres unmarked); true
CC[C@H]1OC(=O)[C@H](C)[C@@H](O[C@H]2C[C@@](C)(OC)[C@](O)(CNC(C)C(C)(C)C)[C@H](C)O2)[C@H](C)[C@@H](O[C@@H]2O[C@H](C)C[C@H](N(C)C)[C@H]2O)[C@](C)(O)C[C@@H](C)NC[C@H](C)[C@@H](O)[C@]1(C)O (some centres unmarked); false
CCCN1C[C@H](C)[C@@H](O)[C@](C)(O)[C@@H](CC)OC(=O)[C@H](C)[C@@H](O[C@H]2C[C@@](C)(OC)[C@](O)(CNCCc3ccncc3)[C@H](C)O2)[C@H](C)[C@@H](O[C@@H]2O[C@H](C)C[C@H](N(C)C)[C@H]2O)[C@](C)(O)C[C@H]1C [syzx-164]; true

stdin: Determine whether this compound shows MIC values, Actinobacillus pleuropneumoniae CVCC262 lower than 0.5 ug/mi (ties excluded): CC[C@H]1OC(=O)[C@H](C)[C@@H](O[C@H]2C[C@@](C)(OC)[C@](O)(CNCc3cccc(N)c3)[C@H](C)O2)[C@H](C)[C@@H](O[C@@H]2O[C@H](C)C[C@H](N(C)C)[C@H]2O)[C@](C)(O)C[C@@H](C)NC[C@H](C)[C@@H](O)[C@]1(C)O
stdout: false

stdin: Determine whether this compound shows MIC values, Actinobacillus pleuropneumoniae CVCC262 lower than 0.5 ug/mi (ties excluded): CCC1OC(=O)C(C)C(OC2CC(C)(OC)C(O)(CNCCCNC3CCCCC3)C(C)O2)C(C)C(OC2OC(C)CC(N(C)C)C2O)C(C)(O)CC(C)NCC(C)C(O)C1(C)O (centres unmarked)
stdout: false
